experiment: Lipid clearance: % dose remaining in liver of CD-1 mice; assay type: in vivo; details: intravenous, 0.5 mg/kg, CD-1 mouse, Table 8a
endpoint-name: % Dose Remaining 24 hr

compound	% Dose Remaining 24 hr
CCCCCCCCCN(CCCCCCCCC)CCN(CCCCCCCCC)CC(=O)OCCOC(=O)CN(CCCCCCCCC)CCCCCCCCC	57.89%

Q. Specify reported % Dose Remaining 24 hr for the compound shown: CCCCCCCCCN(CCCCCCCCC)CCN(CCCCCCCCC)CC(=O)N1CCC(CN(CCCCCCCCC)CCCC(=O)OCCCCC)C1 (stereo not shown)
A. 38.66%

Q. Specify reported % Dose Remaining 24 hr for the compound shown: "CCCCCCCCCN(CCCCCCCCC)CCN(CCCCCCCCC)CC(=O)N1CCN(C(=O)CN(CCCCCCCCC)CCCCCOC(=O)OC)CC1"
A. 0.54%

----------
# EE (%) annotations
assay: Encapsulation efficiency of RNA (QUANT-IT RIBOGREEN RNA assay); format: physicochemical; conditions: Table 1d, Formulated with lipid:Chol:DOPE:PEG 1 40:38.5:20:1.5
Report as a plain number; the unit % is understood.

molecule	assay-value
CCCCCCCCCN(CCCCCCCCC)CCN(CCCCCCCCC)CC(=O)NCCNC(=O)CN(CCCCCCCCC)CCCCCCCCC [Compound 153]	97.2
CCCCCCCCCN(CCCCCCCCC)CCN(CCCCCCCCC)CC(=O)N(C)CCCCN(C)C(=O)CN(CCCCCCCCC)CCCCCCCCC [Compound 159]	92.9
CCCCCCCCCCCCCCN(C/C=C\COC(=O)CCCCCCCC)CC(=O)N1CCN(C(=O)CN(CCCCCCCCC)CCN(CCCCCCCCC)CCCCCCCCC)CC1 [Compound 141]	97.6
CCCCC/C=C\CCN(CC/C=C\CCCCC)CCN(CC/C=C\CCCCC)CC(=O)N(C)CCN(C)C(=O)CN(CCCCCCCCC)CCCCCCCCC [Compound 154]	97.8
CCCC/C=C\CCCCCCCCN(CCCOC(=O)CCCCCCCCC)CC(=O)N1CCN(C(=O)CN(CCCCCCCCC)CCN(CCCCCCCCC)CCCCCCCCC)CC1 [Compound 140]	86.9

Q. Specify reported EE (%) for the molecule shown: CCCCCCCCCN(CCCCCCCCC)CCN(CCCCCCCCC)CC(=O)N(CC)CCN(CC)C(=O)CN(CCCCCCCCC)CCCCCCCCC [Compound 157]
A. 98.3

Q. Specify reported EE (%) for the molecule shown: CCCCCCCCCCCCCCN(CCCOC(=O)CCCCCCCCC)CC(=O)N(C)CCN(C)C(=O)CN(CCCCCCCCC)CCN(CCCCCCCCC)CCCCCCCCC [Compound 158]
A. 97.8

Q. Specify reported EE (%) for the molecule shown: CCCCCCCCCN(CCCCCCCCC)CCN(CCCCCCCCC)CC(=O)N(C)CCCN(C)C(=O)CN(CCCCCCCCC)CCCCCCCCC [Compound 155]
A. 98.4

Q. Specify reported EE (%) for the molecule shown: CCCCCCCCCN(CCCCCCCCC)CCCCCCCCN(CCCCCCCCC)CCN(CCCCCCCCC)CCCCCCCCC [Compound 160]
A. 97.3

----------
# AUC (mIU/mL*h) annotations
system: hEPO expression; assay: hEPO (miR126 + miR142) mRNA expression, Tables 8b-8e; type: in vivo; conditions: lipid:Chol:PEG 1 50:47.5:2.5, Table 8e
Report as a plain number; the unit mIU/mL*h is understood.

For orientation, consider the following solved cases.
compound	endpoint-name	assay-value
CCCCCCCCCOC(=O)CCCCCCCN(CCCCCCCC(=O)OC(CCCCCCCC)CCCCCCCC)CCCCCN(CCCCCCCCC)CCCCCCCCC	AUC (mIU/mL*h)	8.44E+07
CCCCCCCCCN(CCCCCCCCC)CCN(CCCCCCCCC)CC(=O)N1CCN(C(=O)CN(CCCCCCCCC)CCCCCCCCC)CC1	AUC (mIU/mL*h)	2.76E+08
CCCCCCCCCOC(=O)CCCCCCCN(CCCCCCCC(=O)OCCCCCCCCC)CCCCCN(CCCCCCCCC)CCCCCCCCC	AUC (mIU/mL*h)	6.84E+07
CCCCCCCCCOC(=O)CCCCCCCN(CCCCCCCC(=O)OC(CCCCCCCC)CCCCCCCC)CCOCCOCCN(CCCCCCCCC)CCCCCCCCC	AUC (mIU/mL*h)	5.03E+07
CCCCCC=CCC=CCCCCCCCCC(CCCCCCCCC=CCC=CCCCCC)OC(=O)CCCN(C)C (centres unmarked) [MC3, reference compound]	AUC (mIU/mL*h)	2.24E+07
CCCCCCCCCOC(=O)CCCCCCCN(CCCCCCCC(=O)OCCCCCCCCC)CCOCCOCCN(CCCCCCCCC)CCCCCCCCC	AUC (mIU/mL*h)	6.70E+06

Q. Specify reported AUC (mIU/mL*h) for the compound shown: "CCCCCCCCCOC(=O)CCCCCCCN(CCCCCCCC(=O)OCCCCCCCCC)CCOCCN(CCCCCCCCC)CCCCCCCCC"
A. 7.79E+06

Q. Specify reported AUC (mIU/mL*h) for the compound shown: "CCCCCCCCCOC(=O)CCCCCCCN(CCCCCCCC(=O)OC(CCCCCCCC)CCCCCCCC)CCOCCN(CCCCCCCCC)CCCCCCCCC"
A. 6.53E+07

Data provenance: patent US12077501B2
